# System: AncSZ
# PROTOCOL: phosphorylation enrichment, bacterial display (enrichment ratio); higher = better substrate or ligand; peptides without Tyr show the background;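 note: 11-residue human phosphosite peptides and single-mutation variants displayed on the E. coli surface, counted by deep sequencing, each peptide's frequency after selection divided by its frequency in the unselected input library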;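 note: frequency after pTyr selection over input frequency; kinase dosed for 20-30% of maximal phosphorylation in three min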
Rule: Y for phosphorylation enrichment not less than 1, N for anything less.

Could you tell me if the measured phosphorylation enrichment of TEDAEYDVQSK [PTCHD3_Y335_P333A] reaches 1 or more?
Y

# check: phosphorylation enrichment of KLSCSYSHWSA [C4BPA_Y470] is greater than or equal to 1
Y

For this sequence, is measured phosphorylation enrichment 1 or higher? VVVTKYCKEEL [ATP7B_Y1078_A1074V]
Y

Does the sequence SFGESYDNSKS [MAN1B1_Y60_N59S] have recorded phosphorylation enrichment that is 1 or more?
N

Check the entry WHHTFYNELRV [ACTA1_Y93] : does phosphorylation enrichment equal or exceed 1?
N

phosphorylation enrichment >= 1 for FISVGYVDDTL [HLA-B_Y51_Q56L] ?
Y

Check the entry FGCTFYNQAIM [MCCC2_Y196_R193C] : does phosphorylation enrichment equal or exceed 1?
Y

Would you say TVQVAYYTVMM [SPATA17_Y83_M86V] shows phosphorylation enrichment at minimum 1?
Y

In plain terms: is recorded phosphorylation enrichment at least 1 for PSDLLYILDIQ [ITGA2B_Y845] ?
Y

Given the entry NMRSTYAKLAA [SEC22B_Y193_H190R] , answer whether its phosphorylation enrichment meets or surpasses 1.
N

Assess whether reported phosphorylation enrichment for MIRSAYALRGL [CPS1_Y590_G593R] sits at 1 or higher.
N

Could you verify whether the entry KFEDVYVRICL [B3GALNT1_Y269_G271R] shows phosphorylation enrichment of no less than 1?
Y

Could you tell me if the measured phosphorylation enrichment of TVQVAYYTMMM [SPATA17_Y83] reaches 1 or more?
Y

Check the entry TEALYYTDDTA [ADPRS_Y75] : does phosphorylation enrichment equal or exceed 1?
Y

---

# MEASUREMENT TARGET: EPHB1 (UniProt P54762)
# Sequence (P54762 whole entry, looked up): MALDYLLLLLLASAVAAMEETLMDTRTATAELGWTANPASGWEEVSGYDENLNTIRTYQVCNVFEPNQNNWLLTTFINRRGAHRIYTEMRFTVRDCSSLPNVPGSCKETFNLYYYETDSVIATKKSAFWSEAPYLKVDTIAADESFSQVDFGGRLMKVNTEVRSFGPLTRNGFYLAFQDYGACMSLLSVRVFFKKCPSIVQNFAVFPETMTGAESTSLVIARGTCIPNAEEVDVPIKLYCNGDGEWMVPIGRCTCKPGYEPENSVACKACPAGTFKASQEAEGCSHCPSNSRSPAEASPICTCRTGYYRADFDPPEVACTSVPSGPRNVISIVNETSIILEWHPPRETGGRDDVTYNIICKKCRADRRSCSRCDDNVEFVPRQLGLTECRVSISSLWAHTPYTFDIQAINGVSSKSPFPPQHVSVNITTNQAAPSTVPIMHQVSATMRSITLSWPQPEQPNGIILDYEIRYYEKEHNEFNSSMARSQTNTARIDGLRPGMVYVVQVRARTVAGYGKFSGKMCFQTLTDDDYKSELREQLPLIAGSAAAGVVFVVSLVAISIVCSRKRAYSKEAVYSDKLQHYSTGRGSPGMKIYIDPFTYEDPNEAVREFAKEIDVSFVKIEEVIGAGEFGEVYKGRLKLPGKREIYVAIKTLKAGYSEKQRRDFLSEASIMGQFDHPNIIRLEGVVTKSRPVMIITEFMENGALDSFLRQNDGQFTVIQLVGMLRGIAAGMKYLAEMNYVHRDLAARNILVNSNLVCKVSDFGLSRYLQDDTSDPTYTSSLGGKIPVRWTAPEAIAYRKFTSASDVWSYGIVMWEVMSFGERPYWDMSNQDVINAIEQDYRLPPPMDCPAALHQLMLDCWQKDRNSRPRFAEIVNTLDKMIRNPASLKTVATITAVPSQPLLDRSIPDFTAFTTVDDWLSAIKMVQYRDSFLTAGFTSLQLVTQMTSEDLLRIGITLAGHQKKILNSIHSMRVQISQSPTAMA
# PROTOCOL: phosphorylation enrichment, bacterial display (enrichment ratio); higher = better substrate or ligand; peptides without Tyr show the background
phosphorylation enrichment below 0.9 gives class 0; phosphorylation enrichment at or above it gives class 1.

Reported phosphorylation enrichment reaches at least 0.9 for MARDIYQASFF [LTK_Y672_R673Q_YF] ?
class 1

Given the entry ILGLEYSLRVP [HELZ2_Y1304] , answer whether its phosphorylation enrichment meets or surpasses 0.9.
class 0

Does phosphorylation enrichment meet or surpass 0.9 for KLADVYQAELR [GFAP_Y116] ?
class 0

Does PLKFLYPNIDR [STAT1_Y668_K673R_YF] have a reported phosphorylation enrichment of at least 0.9?
class 1

hey, is phosphorylation enrichment for this one >= 0.9? NTGDYCDLYGG [PTPN11_Y63_Y63C]
class 1

Entry CLAQRYLIWEC [SCN5A_Y694_R689C] : is its phosphorylation enrichment no less than 0.9?
class 0

Does phosphorylation enrichment meet or surpass 0.9 for YGIAQYCCRMG [LRRK2_Y2023] ?
class 1

Please indicate if the recorded phosphorylation enrichment for KVGPGSLGSGG [RET_Y826_Y826S] meets or exceeds 0.9.
class 0

Quick check: does DIMDLYNQPEP [IL36A_Y96] have phosphorylation enrichment greater than or equal to 0.9?
class 0

Given the entry LASLIYNFVLF [AQP6_Y231] , answer whether its phosphorylation enrichment meets or surpasses 0.9.
class 1

Dear colleague, could you confirm whether ITNVLYHVVGW [GBA_Y412_L410V] has phosphorylation enrichment at or above 0.9?
class 1

Check if phosphorylation enrichment >= 0.9 (inclusive). Item: RRIHSYRGHVW [VHL_Y112_L116V]
class 0

Entry FETDFYRKGGK [INSR_Y1190_YF] : is its phosphorylation enrichment no less than 0.9?
class 0
